Target: human Nectin-4 (protein used in the SPR affinity measurements) (human) (UniProt Q96NY8)
Sequence (Q96NY8 32-349 limits assumed): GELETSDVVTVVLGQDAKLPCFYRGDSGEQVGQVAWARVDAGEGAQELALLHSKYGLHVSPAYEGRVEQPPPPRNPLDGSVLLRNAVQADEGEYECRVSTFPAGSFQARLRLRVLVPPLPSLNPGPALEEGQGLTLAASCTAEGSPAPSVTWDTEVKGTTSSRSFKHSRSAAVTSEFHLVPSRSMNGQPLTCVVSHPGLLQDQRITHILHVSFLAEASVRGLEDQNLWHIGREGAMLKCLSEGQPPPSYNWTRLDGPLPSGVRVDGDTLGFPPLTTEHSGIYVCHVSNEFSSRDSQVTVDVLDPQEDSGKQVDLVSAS
Test: SPR, human IgG1
Quantity Name: kon (M⁻¹ s⁻¹)
State the answer as a number, implicitly in M⁻¹ s⁻¹.

See these solved cases before continuing.
- H0L0 (antibody, human IgG1, V domains shown, human IgG1 isotype; also called HOLO; humanized 5E7 variant H0L0) VH: QVQLVQSGAEVKKPGASVKVSCKASGYTFTSYWMHWVRQAPGQGLEWMGEIDPSDSYTNYNQKFKGRVTMTRDTSTSTVYMELSSLRSEDTAVYYCARGYGNYGDYWGQGTLVTVSS VL: DIVMTQSPLSLPVTPGEPASISCRSSKSLLHSNGITYLYWYLQKPGQSPQLLIYQMSNLASGVPDRFSGSGSGTDFTLKISRVEAEDVGVYYCAQNLELPWTFGGGTKVEIK: 170000
- H3L3 (antibody, human IgG1, V domains shown, human IgG1 isotype) VH: QVQLVQSGAEVKKPGASVKVSCKASGYIFTSYWMHWVRQAPGQGLEWMGEIDPSDSYTNYNQKFKGRVTMTLDKSTSTTYMELSSLRSEDTAVYYCARGYGNYGDYWGQGTLVTVSS VL: DVVMTQSALSNPVTPGEPASISCRSSKSLLHSNGITYLYWYLQKPGQSPQLLIYQMSNLASGVPDRFSSSGSGTDFTLKISRVEAEDVGVYYCAQNLELPWTFGGGTKVEIK: 260000

Let us examine a further case.
[Q] For the binder H5L2 (antibody, human IgG1, V domains shown, human IgG1 isotype) VH: QVQLVQSGAEVKKPGASVKVSCKASGYIFTSYWMHWVKQRPGQGLEWMGEIDPSDSYTNYNQKFKGRVTMTLDKSTSTTYMELSSLRSEDTAVYYCARGYGNYGDYWGQGTLVTVSS VL: DVVMTQSPLSNPVTPGEPASISCRSSKSLLHSNGITYLYWYLQKPGQSPQLLIYQMSNLASGVPDRFSSSGSGTDFTLKISRVEAEDVGVYYCAQNLELPWTFGGGTKVEIK , what kon is on record?
[A] 220000
